study_target: Human LDHA (Homo sapiens (Human), UniProt P00338)
method_summary: human LDHA primary biochemical assay (resazurin/diaphorase coupled, fluorescence)
assay_conditions: LDHA inhibitory activity, assay of Example 1; activity level classes
Text: Test compounds were placed in a Greiner Bio-One (Monroe, N.C.) 1536-well black solid bottom assay plate. 200 millimolar (mM) Tris HCl, pH 7.4, 100 micromolar […] EDTA and 0.01% TWEEN-20™, final concentration, was used as the assay buffer. The LDHA reagent was 2 nanomolar (nM) Human LDHA (Meridian Life Science, Inc., Memphis, Tenn.), final concentration, in assay buffer.
parameter: IC50

> print(dat)
                                    compound  experimental.value
 1  NS(=O)(=O)c1ccc(Cc2cn(-c3nc(Br)cs3)nc2-c2ccccc2)cc1    1000 to 57000 nM
 2  Cc1ccc(-c2cccc(-c3nn(-c4nc(C(=O)O)cs4)c(CC4CC4)c3Cc3ccc(S(N)(=O)=O)c(F)c3)c2)cc1            < 100 nM
 3  N[S+](=O)([O-])c1ccc(Cc2c(CC3CC3)nn(-c3nc(C(=O)O)cs3)c2-c2ccc(F)c(-c3cccc(F)c3)c2)cc1F    1000 to 57000 nM
 4   O=C(O)c1csc(-n2nc(-c3cc(F)ccc3F)cc2O)n1          > 57000 nM
 5  NS(=O)(=O)c1ccc(Cc2c(-c3ccc(F)c(-c4ccccc4)c3)nn(-c3nc(C(=O)O)cs3)c2CC2CC2)cc1            < 100 nM
 6  NS(=O)(=O)c1ccc(Cc2c(-c3cccc(-c4ccccc4)c3)nn(-c3nc(C(=O)O)cs3)c2C2CC2(F)F)cc1 (stereo not shown)            < 100 nM
 7  Nc1c(Cc2ccc(S(N)(=O)=O)cc2)c(-c2ccccc2)nn1-c1ccc(=O)[nH]n1          > 57000 nM
 8  Cc1ccc(-c2cc(-c3nn(-c4nc(C(=O)O)cs4)c(C(F)(F)F)c3Cc3ccc(S(N)(=O)=O)cc3)ccc2F)cc1            < 100 nM
 9  Nc1c(Cc2ccc(S(N)(=O)=O)cc2)c(-c2ccccc2)nn1-c1cccc(C(=O)O)c1          > 57000 nM
10  NS(=O)(=O)c1ccc(Cc2c(-c3cccc(-c4ccccc4)c3)nn(-c3nc(C(=O)O)cs3)c2C2(C(F)(F)F)CC2)c(F)c1      100 to 1000 nM
11  CNS(=O)(=O)c1ccc(Cc2c(-c3cccc(-c4ccccc4)c3)nn(-c3nc(C(=O)O)cs3)c2O)cc1          > 57000 nM
12  CCOC(=O)c1ccc(-n2nc(-c3ccccc3)c(Cc3ccc(S(N)(=O)=O)cc3)c2N)nn1          > 57000 nM
13  CCOC(=O)OC(C)OC(=O)c1csc(-n2nc(-c3ccc(F)c(F)c3)cc2OC(C)OC(=O)OCC)n1 (stereo not shown)          > 57000 nM
14  CC(C)c1ccc(-c2cc(-c3nn(-c4nc(C(=O)O)cs4)c(CC4CC4)c3Cc3ccc([S+](N)(=O)[O-])cc3)ccc2F)cc1            < 100 nM
15  NS(=O)(=O)c1ccc(Cc2c(-c3ccc(F)c(-c4ccc(F)cc4)c3)nn(-c3nc(C(=O)O)cs3)c2C2CC2)cc1F            < 100 nM
16  NS(=O)(=O)c1ccc(Cc2c(-c3ccc(F)c(-c4ccc(F)cc4)c3)nn(-c3nc(C(=O)O)cs3)c2C2CC2)c(F)c1            < 100 nM
17  NS(=O)(=O)c1ccc(Cc2c(-c3ccccc3)nn(-c3nc(C(=O)O)cs3)c2I)cc1            < 100 nM
18  NS(=O)(=O)c1ccc(Cc2c(-c3cccc(-c4ccccc4)c3)nn(-c3nc(C(=O)O)cs3)c2C2(C(F)(F)F)CC2)cc1    1000 to 57000 nM
19  Cn1ncc(C(=O)n2nc(-c3ccccc3)c(Cc3ccc(S(N)(=O)=O)cc3)c2N)c1N          > 57000 nM
20  COC(=O)c1csc2c1c(=O)[nH]c1cc(-c3ccc(F)c(F)c3)nn12          > 57000 nM
21  Nc1c(Cc2ccc(S(N)(=O)=O)cc2)c(-c2ccccc2)nn1-c1cc(C(=O)O)ccn1          > 57000 nM
22  NS(=O)(=O)c1ccc(Cc2c(-c3cccc4cc(F)ccc34)nn(-c3nc(C(=O)O)cs3)c2O)cc1          > 57000 nM
23  NS(=O)(=O)c1ccc(Cc2c(-c3cccc(-c4ccccc4)c3)nn(-c3nc(C(=O)O)cs3)c2CC2CC2(F)F)cc1 (stereo not shown)            < 100 nM
24  CCOC(=O)c1csc(-n2nc(CC3CC3)c(Cc3ccc(S(N)(=O)=O)c(F)c3)c2-c2ccc(F)c(-c3cccc(F)c3)c2)n1          > 57000 nM
25  NS(=O)(=O)c1ccc(Cc2cn(-c3nc(C(=O)O)cs3)nc2-c2ccc(F)c(F)c2)cc1            < 100 nM
26  N[S+](=O)([O-])c1ccc(Cc2c(-c3cccc(-c4cccc(F)c4)c3)nn(-c3nc(C(=O)O)cs3)c2C(F)(F)F)cc1            < 100 nM
27  NS(=O)(=O)c1ccc(Cc2c(-c3ccc(F)c(-c4cccc(F)c4)c3)nn(-c3nc(C(=O)O)cs3)c2C(F)(F)F)cc1            < 100 nM
28  NS(=O)(=O)c1ccc(Cc2c(-c3cccc(OC4CCCC4)c3)nn(-c3nc(C(=O)O)cs3)c2CC2CC2)cc1F            < 100 nM
